All values here come from paper PMC9482650.

Biological target: DLG4_1, P78352
Sequence (P78352 62-152): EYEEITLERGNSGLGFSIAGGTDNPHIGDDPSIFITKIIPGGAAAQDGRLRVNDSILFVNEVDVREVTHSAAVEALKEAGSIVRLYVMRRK
Assay: holdup assay
Parameters: key: below the threshold = too weak to quantify, mostly under pKd 3.1 to 4
Details: plain residues with an end cap or a label only (N-terminal biotin on a linker: ahx)
Can you tell me pKd for the items I'm about to list?
Answers are plain numbers.

Worked cases, pKd given:
>>> numeric_value("HTHSYIETHV [CNKSR2, Q8WXI2]")
4.4
>>> numeric_value("QDEKVKESYV [ABCA1, O95477]")
4.52
>>> numeric_value("TQKFRASTAL [FRMPD1, Q5SYB0]")
3.48

--- query ---
// query Entry QPRTWLQSPV [RTKN, Q9BST9] : reported pKd = ?
// result 4.19
